# System: Escherichia coli TOP10
# test-summary: shrunken log2 fold change of peptide-encoding DNA abundance (4.5 h post-induction vs induction); higher = less antimicrobial activity (less host growth inhibition)
# reported-conditions: time post-induction: 4.5 h; library: site-saturation at positions 5, 18, 19, 20
# label = fulfilled if shrunken log2 fold change >= -0.04 else not fulfilled

[
  {
    "entry-sequence": "RRIRPRPPRLPRPRPRPAMYPRP",
    "class-assignment": "fulfilled"
  },
  {
    "entry-sequence": "RRIRRRPPRLPRPRPRPWIEPRP",
    "class-assignment": "not fulfilled"
  },
  {
    "entry-sequence": "RRIRIRPPRLPRPRPRPPPIPRP",
    "class-assignment": "fulfilled"
  },
  {
    "entry-sequence": "RRIRLRPPRLPRPRPRPNPNPRP",
    "class-assignment": "fulfilled"
  },
  {
    "entry-sequence": "RRIRPRPPRLPRPRPRPGKDPRP",
    "class-assignment": "fulfilled"
  },
  {
    "entry-sequence": "RRIRERPPRLPRPRPRPSFTPRP",
    "class-assignment": "not fulfilled"
  },
  {
    "entry-sequence": "RRIRYRPPRLPRPRPRPVAKPRP",
    "class-assignment": "not fulfilled"
  },
  {
    "entry-sequence": "RRIRSRPPRLPRPRPRPFDPPRP",
    "class-assignment": "not fulfilled"
  },
  {
    "entry-sequence": "RRIRHRPPRLPRPRPRPATAPRP",
    "class-assignment": "not fulfilled"
  }
]

---

Parameter: shrunken log2 fold change. Scope: all listed entries.
# System: Escherichia coli TOP10;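 also: peptides expressed intracellularly from a pBAD plasmid library in pooled LB shake-flask culture, induced with 0.3% L-arabinose, DNA abundance read by NGS, three biological replicates, DESeq2 with apeglm shrinkage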
# test-summary: shrunken log2 fold change of peptide-encoding DNA abundance (4.5 h post-induction vs induction); higher = less antimicrobial activity (less host growth inhibition)
# reported-conditions: time post-induction: 4.5 h; library: site-saturation at positions 5, 18, 19, 20
test-readout: shrunken log2 fold change

[
  {
    "entry-sequence": "RRIRYRPPRLPRPRPRPLIAPRP",
    "target": "Escherichia coli TOP10",
    "result-number": -0.668
  },
  {
    "entry-sequence": "RRIRARPPRLPRPRPRPYNHPRP",
    "target": "Escherichia coli TOP10",
    "result-number": -0.402
  },
  {
    "entry-sequence": "RRIRFRPPRLPRPRPRPCVVPRP",
    "target": "Escherichia coli TOP10",
    "result-number": -0.379
  },
  {
    "entry-sequence": "RRIRSRPPRLPRPRPRPDNKPRP",
    "target": "Escherichia coli TOP10",
    "result-number": -0.256
  },
  {
    "entry-sequence": "RRIRPRPPRLPRPRPRPVRWPRP",
    "target": "Escherichia coli TOP10",
    "result-number": 0.819
  },
  {
    "entry-sequence": "RRIRSRPPRLPRPRPRPRMEPRP",
    "target": "Escherichia coli TOP10",
    "result-number": 0.0338
  },
  {
    "entry-sequence": "RRIRPRPPRLPRPRPRPVCRPRP",
    "target": "Escherichia coli TOP10",
    "result-number": -0.0794
  },
  {
    "entry-sequence": "RRIRARPPRLPRPRPRPVAHPRP",
    "target": "Escherichia coli TOP10",
    "result-number": 0.159
  }
]
